Source: paper PMC5540273

# key: entry, value: %Inh
Test system: MTOR;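 also: KINOMEscan kinase panel screen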
Conditions: concentration: 1 μM, replicates: in singlicate; n = 1
measurementType: %Inh

COc1ccc(Nc2nccc(N3CCC(NC(=O)C(C)c4ccc(Cl)cc4)CC3)n2)cc1 (centres unmarked) [GSK1379812] :: 3%
CN1c2ccc(-c3ccc(C(N)=O)cc3)cc2-c2[nH]ncc2S1(=O)=O :: 14%
Cc1nccc(-c2c(-c3ccc(F)cc3)ncn2CCCN2CCOCC2)n1.Cl [SB-282975] :: 21%
O=C1NC(=O)C(c2ccc(Cl)cc2)=C1Nc1ccc(O)cc1 [SB-340867] :: 0%
COc1cccc(C2=C(Nc3cc(Cl)c(O)c(Cl)c3)C(=O)NC2=O)c1 [SB-390767] :: 44%
O=C1NC(=O)C(c2ccc(Cl)cc2)=C1Nc1cccc(Cl)c1 [SB-317651] :: 8%
CNC(=O)c1ccc(C)c(-n2c(C)cc(OCc3ccc(F)cc3F)c(Br)c2=O)c1 :: 33%
CC(=O)c1cccc(NC(=O)NC2CCN(c3ccnc(Nc4ccc(F)cc4)n3)C2)c1 (centres unmarked) [GSK1379710] :: 21%
CCn1c(-c2ccccc2)nc2cnccc21 [SB-733416] :: 31%
COC(=O)C(Cc1ccccc1)NC(=O)NC1CCN(c2ccnc(Nc3ccc(F)cc3)n2)C1 (centres unmarked) [GSK1379714] :: 33%
FC(F)(F)c1ccccc1-c1cc(-c2c[nH]nc2-c2ccccn2)ccn1 [GW679396] :: 0%
